tested target: T1, Epidermal Growth Factor Receptor 2 (HER2) (human, UniProt P04626 23-1255)
T1 construct: whole, on cells; the cell line is named under assay; also called ErbB-2; ERBB2
assay procedure: FMAT competition on SKBR3 cells, periplasmic extract
Each record here notes measured % blocking of Herceptin binding.

binder	% blocking of Herceptin binding
13D11 (VHH, C-term myc-His6 tag) VHH: EVQLVESGGGLVHPGGSLRLSCVGSGFSLDDYGMTWVRRAPGKGLEWVSSINWSGTHTDYADSVKGRFTISRDNAKNTLFLQMNSLNPEDTAVYYCGQGWKIVPTNPRGHGTQVTVSS	> 90%

Now consider a different binder.
The value of % blocking of Herceptin binding measured for the binder 17D8 (VHH, C-term myc-His6 tag) VHH: EVQLVESGGSLVPPGGSLRLSCAVSGFTFDDYAMSWVRQAPGKGLEWVSSINWSGTHTDYTDSVKGRFTISRNNANNMLYLQMNSLKSEDTAVYYCAKNWRDAGTTWFEKSGSAGQGTQVTVSS turned out to be > 90%
